Record form. Attribute: log10(CL). Fill in for each entry.
# Cond: mouse, microsomes
# Description: Metabolic stability in mouse microsomes assessed as intrinsic clearance
Values are log10 of CL in µL/min/mg.

Worked cases, answers included:
compound=COCCOc1ccc2nc(C3(NC(=O)C[C@H](N)Cc4cc(F)c(F)cc4F)CCOCC3)sc2c1 result_type=log10(CL) reading=1.34
compound=COCCOc1ccc2nc(C3(NC(=O)C[C@H](N)Cc4cc(F)c(F)cc4F)CCS(=O)(=O)CC3)sc2c1 result_type=log10(CL) reading=1.53
compound=COCCOc1ccc2nc(C3(NC(=O)C[C@H](N)Cc4cc(Cl)ccc4F)CCS(=O)(=O)CC3)sc2c1 result_type=log10(CL) reading=1.52
compound="C[C@]12CC[C@H]3[C@@H](CCC4=CC(=O)CC[C@@]43C)[C@@H]1CC[C@@H]2O [TESTOSTERONE]" result_type=log10(CL) reading=2.49
compound=COCCOc1ccc2nc(C3(NC(=O)C[C@H](N)Cc4cc(Cl)ccc4F)CCOCC3)sc2c1 result_type=log10(CL) reading=1.46

Shift focus to the following entry.
Query string: // log10(CL) lookup, key: `N[C@@H](CC(=O)NC1(c2nc3ccc(OCCN4CCOCC4)cc3s2)CCS(=O)(=O)CC1)Cc1cc(F)c(F)cc1F`
Result string: 1.54

From: ChEMBL document CHEMBL1152235
